src = the supplement of paper PMC6757056

So I've got a bunch of variants here, and I need their normalized RNA/DNA level with ligand (log10) values.
B1: library; a variant is named by its letters at N, in order (parent)
chain: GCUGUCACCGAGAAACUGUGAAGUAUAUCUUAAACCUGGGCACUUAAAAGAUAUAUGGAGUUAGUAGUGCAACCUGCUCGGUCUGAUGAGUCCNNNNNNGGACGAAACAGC

Variants of: B1
assay-info: normalized RNA/DNA level with ligand (relative to sTRSVctl = 100) (log10 (% of sTRSVctl)); HEK293T; ligand: cyclic di-GMP (c-di-GMP-II aptamer); ligand concentration (+) RNA-Seq: 1 mM; higher = less ribozyme self-cleavage, higher mRNA level
test-parameters: reporter: mCherry (pCS4076), ligand present: yes

Please give normalized RNA/DNA level with ligand (log10), item by item, for the list that follows.
1. GCUGUCACCGAGAAACUGUGAAGUAUAUCUUAAACCUGGGCACUUAAAAGAUAUAUGGAGUUAGUAGUGCAACCUGCUCGGUCUGAUGAGUCCGAUCGAGGACGAAACAGC [GAUCGA]
2. GCUGUCACCGAGAAACUGUGAAGUAUAUCUUAAACCUGGGCACUUAAAAGAUAUAUGGAGUUAGUAGUGCAACCUGCUCGGUCUGAUGAGUCCGCCUCCGGACGAAACAGC [GCCUCC]
3. GCUGUCACCGAGAAACUGUGAAGUAUAUCUUAAACCUGGGCACUUAAAAGAUAUAUGGAGUUAGUAGUGCAACCUGCUCGGUCUGAUGAGUCCUCAUGGGGACGAAACAGC [UCAUGG]

1.78
1.84
1.9
